Could you please report measured pre-steady-state target cleavage rate for the items listed next?
Tested on: MIWI (PIWIL1) piRISC loaded with piRNA #1 (30 nt);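 also: 1 nM active piRISC with 0.1 nM target library at 33 °C single turnover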
Experiment: pre-steady-state target cleavage rate (min^-1); MIWI and MILI are mouse PIWI proteins and EfPiwi is from a freshwater sponge; tags in brackets are library labels; higher = faster piRNA-guided slicing of the target;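 also: 1 nM active piRISC with 0.1 nM target library at 33 °C single turnover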
Conditions: guide: piRNA #1 5'p-UGAGGUAGUAGGUUGUAUAGUAUCCAGAGG; auxiliary factor: 500 nM mouse GTSF1
Over roughly 6,200 sequences, “pre-steady-state target cleavage rate” has its median near 0.29; the highest 2% begin near 2. The sample as a whole holds a higher share of the highest values than the screen did.

Can you share its pre-steady-state target cleavage rate? I mean this sequence: GGAGACCUAUGUAUACAAUCUACUACCUCA
0.0144

Which pre-steady-state target cleavage rate is reported for this sequence? GGAGAGGUUACUAAACAACCUACUACCUCA
1.21

Fill in the blank: the reported pre-steady-state target cleavage rate of CCUCUGGAAUACUAUACAACCUACUACCUCA is ____.
2.19

So what's the measured pre-steady-state target cleavage rate for this one? GCUCUGGAUACUAUACAACCUACUACUCA
1.64

I am curious: what pre-steady-state target cleavage rate value has been reported for GGACUGGAUACAAUACAAGCUACUACCUCA ?
0.683

Endpoint output: pre-steady-state target cleavage rate of GGAGACCUAACUAUACAACAUACUACCUCA . Value?
0.303

I'd like to know its pre-steady-state target cleavage rate. The sequence in question is GAUCUGGAUACUAUACAACCUACUACCUCA
1.91

Give its pre-steady-state target cleavage rate value. Item: CCUCUGGAUAGUAUACAACCUACUUCCUCA
0.21

I am curious: what pre-steady-state target cleavage rate value has been reported for GGAGGGGAUACUAUACAACCUACUACCUCA ?
1.51

Can you share its pre-steady-state target cleavage rate? I mean this sequence: CCCCUGGAUACUAUACAACCUACUACCUCA
2.45

Quick check: pre-steady-state target cleavage rate of GGAGUGCAUACUAUACUACCUACUACCUCA ?
1.13

Suppose we examine the sequence GGAGACGAAACUAUACAAGCUACUACCUCA ; what pre-steady-state target cleavage rate value has been reported?
0.872

Which measured pre-steady-state target cleavage rate value corresponds to GGACUUGGAUACUAUACAACCUACUACCUCA ?
1.78

Returns the measured pre-steady-state target cleavage rate for the input sequence. Input: GCUUGGAUACUAUACAACCUACUACCUCA
1.87

Reported pre-steady-state target cleavage rate, sequence GGAGACCAUUCUAUACAACCUACAACCUCA : ____
0.667

Using the record for GGAGACGAUACUAUACAACCUACUACCUCCA , report its pre-steady-state target cleavage rate.
2.06

Requested field: pre-steady-state target cleavage rate. Item: CCUCUGGAUACUAAACAACCUACUACGUCA
1.49

Recorded pre-steady-state target cleavage rate for GGAGACCUAACUAAACAACCUACUAGCUCA , please?
0.0502

Recorded pre-steady-state target cleavage rate of GGAGACCUAACUAUACUAGCUACUACCUCA , please.
0.0132

Fill in the blank: the reported pre-steady-state target cleavage rate of CCUCAGGUUACUAUACAACCUACUACCUCA is ____.
2.5

Data request, read-out pre-steady-state target cleavage rate, for CCUCAGGAUACUAUACAACCUACUACCUCA
1.98

Item under review: GCCCUGGAUACUAUACAACCUACUACCUCA . Reported pre-steady-state target cleavage rate?
2.17

I would be grateful if you could share the reported pre-steady-state target cleavage rate for CCUCUUGGAUACUAUACAACCUACUACCUCA .
2.3

Fill in the blank: the reported pre-steady-state target cleavage rate of CCUGACGAUACUAUACAACCUACUACCUCA is ____.
2.06

Tell me the measured pre-steady-state target cleavage rate of CCUUUGGAUACUAUACAACCUACUACCUCA , please.
2.3

Fill in: pre-steady-state target cleavage rate of GCUCAGGUUACUAUACAACCUACUACCUCA is ___
2.01

Name the reported pre-steady-state target cleavage rate value associated with the sequence GGUCUGGAUACUAUACAACCUUACUACCUCA
0.00317

Given GGAGUGGAUACUAUACAACGUACUAGCUCA , state its recorded pre-steady-state target cleavage rate.
0.0857

Need pre-steady-state target cleavage rate of CCUCUGGAUACUAUAGAACCUACAACCUCA , thanks.
0.0249

I would be grateful if you could share the reported pre-steady-state target cleavage rate for GCUCAGGAUACUAUACAACCUACUACCUCA .
1.85

Any idea what pre-steady-state target cleavage rate was measured for CCCUGGAUACUAUACAACCUACUACCUCA ?
2.52

Which measured pre-steady-state target cleavage rate value corresponds to CCUCUGGAUACUAUACAACCUACUACUCUCA ?
2.32

Please give the measured pre-steady-state target cleavage rate for this sequence: GCUCUGGAUACUAUACAACCUACUACUCUCA
2.07

Please look up its pre-steady-state target cleavage rate: GGAGAGGAAACUAUACAUCCUACUACCUCA
1.19

Query (sequence): GGUUUGGAUACUAUACAACCUACUACCUCA ; field requested: pre-steady-state target cleavage rate
1.81

Which pre-steady-state target cleavage rate is reported for this sequence? CCUCUGGAUACUAUACAGACCUACUACCUCA
0.0114

Which value of pre-steady-state target cleavage rate has been reported for GCUCUUGGAUACUAUACAACCUACUACCUCA in the records?
2.1

Need pre-steady-state target cleavage rate of GGAGACCUUACAAUACAAGCUACUACCUCA , thanks.
0.258

# lookup: pre-steady-state target cleavage rate of GGUCUGGAUUCUAAACAACCUACUACCUCA
1.23

Quick check: pre-steady-state target cleavage rate of GCUGACGAUACUAUACAACCUACUACCUCA ?
1.84

For the sequence shown here, GGAGACGAUACUAUUCAUCCUACUACCUCA , give the reported pre-steady-state target cleavage rate.
1.09

Requested read-out: pre-steady-state target cleavage rate. Entry: CCUGUGGAUACUAUACAACCUACAACCUCA
0.383

Fill blank: measured pre-steady-state target cleavage rate of the sequence GGAGACGAUACUAUACAACCUACUACCUCG [g2:g24:cont:t1G] is ____.
1.1

Item under review: GGACUGGAUACUAUACAACGUACUACCUGA . Reported pre-steady-state target cleavage rate?
0.377

Fill in the blank: the reported pre-steady-state target cleavage rate of CCUUGGAUACUAUACAACCUACUACCUCA is ____.
2.26

// pre-steady-state target cleavage rate lookup, key: CCUCACGAUACUAUACAACCUACUACCUCA
2.1

Consider the sequence GCCUGGAUACUAUACAACCUACUACCUCA and give its measured pre-steady-state target cleavage rate.
1.87

Please look up its pre-steady-state target cleavage rate: CCUCUGGAUACUAUACAACCUACUCCUCA
0.105

Entry under review: GGAGUGGAUACUAAACAACCUACUUCCUCA . Reported pre-steady-state target cleavage rate?
0.0286

Requested field: pre-steady-state target cleavage rate. Item: GGUCUUGGAUACUAUACAACCUACUACCUCA
1.87

Consider the sequence shown here: GGUGACGAUACUAUACAACCUACUACCUCA What is its recorded pre-steady-state target cleavage rate?
1.82

Param item = GCAUCUGGAUACUAUACAACCUACUACCUCA ; retrieve measured pre-steady-state target cleavage rate.
1.82

# query: pre-steady-state target cleavage rate of entry GGAGUGGUUACUAUACAACGUACUACCUCA
0.386

# pre-steady-state target cleavage rate lookup, item GGUGUGGAUACUAUACAACCUUCUACCUCA
0.734

Suppose we examine the sequence GGAGUGGAUAGUAUUCAACCUACUACCUCA ; what pre-steady-state target cleavage rate value has been reported?
0.584

All values here come from the supplement of paper PMC10338343.
